B1: TPR 5TU (parent)
chain: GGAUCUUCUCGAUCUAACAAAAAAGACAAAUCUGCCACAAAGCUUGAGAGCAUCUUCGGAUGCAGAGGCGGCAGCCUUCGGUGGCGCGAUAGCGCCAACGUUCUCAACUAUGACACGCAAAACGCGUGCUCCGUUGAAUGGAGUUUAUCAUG

Variants of: B1
Experiment: polymerase ribozyme fitness, log enrichment relative to wild type (log ratio); higher = more active; in vitro selection for triplet polymerase activity
Fewer inactive variants are shown than the library holds.
Please go through the items and note down their polymerase ribozyme fitness (log ratio).
Could you respond with only the numeric value?

Please look at this variant and report its polymerase ribozyme fitness (log ratio): C96U C131G -2.66

Please look at this variant and report its polymerase ribozyme fitness (log ratio): C54A C87A -4.19

Please look at this variant and report its polymerase ribozyme fitness (log ratio): A40C C93A -1.96

Please look at this variant and report its polymerase ribozyme fitness (log ratio): U13G G81U G86A C105U -3.74

Please look at this variant and report its polymerase ribozyme fitness (log ratio): U56A G58C C85U -0.365
